- Test system: NCI-H460 non-microcytoma lung cancer cells
- TEST_DESCRIPTION: Cytotoxic activity on NCI-H460 cells (sulforodamine B test)
- Type: cell-based
- CONDITION_INFO: product concentration that inhibits cell survival by 50%; 2 hours incubation with products, then another 72 hours in drug-free medium; optical density at 540 nm; read-out: IC50 (µM) H-460
Assign log10 IC50 to each entry below.
Use the decimal logarithm of IC50 (µM).

For NCI-H460 non-microcytoma lung cancer cells, provide log10 IC50 of CC[C@@]1(O)C(=O)OCc2c1cc1n(c2=O)Cc2cc3c(C#N)c(OC)ccc3nc2-1 please. -0.57

Same again, this time with CC[C@@]1(O)C(=O)OCc2c1cc1n(c2=O)Cc2cc3c(C=NOC(C)(C)C)c(O)ccc3nc2-1 -0.46

// same read-out, input: CC[C@@]1(O)C(=O)OCc2c1cc1n(c2=O)Cc2cc3c(C=NOCCN)cccc3nc2-1 0.40

Try the compound CC[C@@]1(O)C(=O)OCc2c1cc1n(c2=O)Cc2cc3c(C=NOC(C)(C)C)c(OC)ccc3nc2-1 -0.51

Same question, CC[C@@]1(O)C(=O)OCc2c1cc1n(c2=O)Cc2cc3c(C=NOC(C)(C)C)cccc3nc2-1 this time -1.17

These measurements were taken from patent EP2096113A1.
